Data origin: patent US20230203029A1

# STUDY SYSTEM: human AXL cytoplasmic domain (Homo sapiens)
# Construct: human AXL cytoplasmic domain (Thermo Fisher A31515); purchased Thermo Fisher A31515
# Sequence (P30530 473-894 limits assumed): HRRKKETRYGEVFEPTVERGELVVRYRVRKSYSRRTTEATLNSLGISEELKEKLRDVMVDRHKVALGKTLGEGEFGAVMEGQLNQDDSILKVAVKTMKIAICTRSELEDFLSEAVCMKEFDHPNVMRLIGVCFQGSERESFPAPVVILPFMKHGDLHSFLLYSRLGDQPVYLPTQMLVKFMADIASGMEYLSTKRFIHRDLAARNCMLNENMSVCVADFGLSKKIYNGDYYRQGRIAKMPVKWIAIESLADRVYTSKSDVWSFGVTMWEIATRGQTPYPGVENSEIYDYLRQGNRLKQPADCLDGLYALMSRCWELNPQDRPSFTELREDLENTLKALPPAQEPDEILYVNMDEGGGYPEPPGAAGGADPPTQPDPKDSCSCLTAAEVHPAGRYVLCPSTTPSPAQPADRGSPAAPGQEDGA
# TEST SUMMARY: Assay 1b AXL HTRF KinEASE-TK assay
# Assay type: biochemical
EXPERIMENTAL ENDPOINT: IC50 (nM)

Some compounds with recorded IC50:
{"COMPOUND": "O=C(Nc1ccc(Oc2ccnc3cnc(C4CCN(C5COC5)CC4)cc23)cn1)c1cccn(-c2ccc(F)cc2)c1=O [Example 16.3]", "IC50, nM": 3}
{"COMPOUND": "O=C(Nc1ccc(Oc2ccnc3cnc(C4CCNC4)cc23)cn1)c1cccn(-c2ccc(F)cc2)c1=O (stereo not shown) [Example 21]", "IC50, nM": 247}
{"COMPOUND": "CN1CCC(C(=O)Nc2cc3c(Oc4ccc(NC(=O)c5cccn(-c6ccc(F)cc6)c5=O)nc4)ccnc3cn2)CC1 [Example 18.1]", "IC50, nM": 10}
{"COMPOUND": "CN1CCC(NC(=O)c2cc3c(Oc4ccc(NC(=O)c5cccn(-c6ccc(F)cc6)c5=O)nc4)ccnc3cn2)CC1 [Example 11]", "IC50, nM": 77}

a = CC(C)n1cc(C(=O)Nc2ccc(Oc3ccnc4cnc(N5CCNCC5)cc34)cc2)c(=O)n(-c2ccccn2)c1=O [Example 12.3]
b = CN1CCC(c2cc3c(Oc4ccc(NC(=O)c5cccn(-c6ccc(F)cc6)c5=O)cc4)ccnc3cn2)CC1 [Example 17]
c = Cn1cc(C(=O)Nc2ccc(Oc3ccnc4cnc(N5CCNCC5)cc34)cc2)c(=O)c(-c2ccc(F)cc2)c1 [Example 13.1]
INPUT: Order by IC50, ascending. List the labels in the requested order.
OUTPUT: c, a, b

###

# STUDY SYSTEM: Ba/F3 Pro B-cell line expressing BCR-human AXL kinase domain fusion protein (Homo sapiens, UniProt P30530)
# Construct: P11274 (Breakpoint cluster region protein)
# Sequence (P30530 536-807 limits assumed): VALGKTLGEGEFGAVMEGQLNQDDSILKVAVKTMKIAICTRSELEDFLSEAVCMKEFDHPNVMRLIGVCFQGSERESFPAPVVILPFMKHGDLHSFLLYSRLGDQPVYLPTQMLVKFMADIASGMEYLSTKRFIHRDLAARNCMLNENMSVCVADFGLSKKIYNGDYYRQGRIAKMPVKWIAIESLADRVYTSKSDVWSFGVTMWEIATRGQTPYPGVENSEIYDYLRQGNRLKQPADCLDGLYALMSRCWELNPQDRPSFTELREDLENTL
# TEST SUMMARY: Assay 5 Ba/F3 cell survival assay, BCR-Axl
# CONDITION NOTES: read-out: BCR-Axl Ba/F3 IC50, 48 h, CellTiter-Glo
# Description: Assay 5—Ba/F3 Cell Survival Assays. […] The plate was then equilibrated for 5 min at room temperature and luminescence read on a BMG Pherastar FSX using the LUM plus optic module. […]
EXPERIMENTAL ENDPOINT: IC50 (nM)
I only need the number, in nM, no unit after it.

Example entries and their recorded answers appear below.
{"COMPOUND": "CC(C)n1cc(C(=O)Nc2ccc(Oc3ccnc4cnc(N5CCNCC5)cc34)cc2)c(=O)n(-c2ccc(F)cc2)c1=O [Example 12.5]", "VALUE REPORTED": 5}
{"COMPOUND": "O=C(Nc1ccc(Oc2ccnc3cnc(N4CCNCC4)cc23)cc1)c1cccc(-c2ccc(F)cc2)[n+]1[O-] [Example 12.6]", "VALUE REPORTED": 6}
{"COMPOUND": "CC(C)n1cc(C(=O)Nc2ccc(Oc3ccnc4cnc(C(=O)NC5CCN(C)CC5)cc34)cc2)c(=O)n(-c2ccc(F)cn2)c1=O [Example 9]", "VALUE REPORTED": 6}

Please look at the following compound next.
INPUT: Give the value of IC50 reported for the following: CC(C)n1cc(C(=O)Nc2ccc(Oc3ccnc4cnc(C(=O)NC5CCN(C)CC5)cc34)cc2)c(=O)c(-c2ccc(F)cc2)c1 [Example 37.1]
OUTPUT: 2
